# tgt: Metabotropic glutamate receptor 2 (Rattus norvegicus, UniProt P31421)
# Sequence (P31421 whole entry): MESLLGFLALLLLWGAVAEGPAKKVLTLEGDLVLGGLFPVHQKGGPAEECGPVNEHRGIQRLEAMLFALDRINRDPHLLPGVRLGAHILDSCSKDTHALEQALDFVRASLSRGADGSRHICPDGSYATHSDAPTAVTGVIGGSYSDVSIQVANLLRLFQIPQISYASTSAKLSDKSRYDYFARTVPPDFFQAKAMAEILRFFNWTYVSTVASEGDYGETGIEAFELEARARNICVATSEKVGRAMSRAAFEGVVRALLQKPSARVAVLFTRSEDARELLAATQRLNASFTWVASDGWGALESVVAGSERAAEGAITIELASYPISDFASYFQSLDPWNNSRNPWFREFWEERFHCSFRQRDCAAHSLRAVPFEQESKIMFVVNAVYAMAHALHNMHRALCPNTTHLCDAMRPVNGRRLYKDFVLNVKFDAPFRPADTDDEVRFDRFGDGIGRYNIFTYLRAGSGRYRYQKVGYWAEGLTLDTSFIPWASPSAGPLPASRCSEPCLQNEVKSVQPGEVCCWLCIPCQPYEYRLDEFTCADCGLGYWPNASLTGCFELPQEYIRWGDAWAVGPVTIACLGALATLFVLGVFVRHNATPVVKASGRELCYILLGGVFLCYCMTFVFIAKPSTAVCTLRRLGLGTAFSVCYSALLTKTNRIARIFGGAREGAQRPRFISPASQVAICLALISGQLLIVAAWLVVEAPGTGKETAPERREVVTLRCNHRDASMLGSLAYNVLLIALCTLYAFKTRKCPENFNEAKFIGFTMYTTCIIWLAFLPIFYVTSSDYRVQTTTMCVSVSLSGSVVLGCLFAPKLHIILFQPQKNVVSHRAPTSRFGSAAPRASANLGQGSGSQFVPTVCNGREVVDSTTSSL
# experimentSummary: Agonist activity at rat mGluR2 receptor expressed in CHO cells assessed as effect on intracellular cAMP level
# Format: functional, cell-based
# conditionLabel: read-out: EC50
testReadout: EC50

Worked examples follow.
>>> testvalue("NC(C(=O)O)c1cnn(O)c1Br (racemic)")
"170 µM"
>>> testvalue("CCCCCc1c(C(N)C(=O)O)cnn1O (racemic)")
"> 1000 µM"
>>> testvalue("NC(C(=O)O)c1cnn(O)c1C(c1ccccc1)c1ccccc1 (racemic)")
"> 1000 µM"
>>> testvalue("NC(C(=O)O)c1cnn(O)c1CC1CC1 (racemic)")
"> 1000 µM"
>>> testvalue("NC(C(=O)O)c1cnn(O)c1CCc1ccccc1 (racemic)")
"> 1000 µM"
>>> testvalue("CCc1c(C(N)C(=O)O)cnn1O (racemic)")
"57 µM"

Task: Let me know recorded EC50 for CCCc1c(C(N)C(=O)O)cnn1O (racemic) , thanks.
Result: 72 µM

Task: Let me know recorded EC50 for CCCCc1c(C(N)C(=O)O)cnn1O (racemic) , thanks.
Result: > 1000 µM

---

# tgt: Glutamate NMDA receptor
# experimentSummary: Displacement of [3H]CGP39653 from NMDA receptor in rat cortical membrane
testReadout: pKi
Here pKi is given on a logarithmic scale as minus log10 of the concentration in mol/L.

Worked examples follow.
>>> testvalue("CCc1c(C(N)C(=O)O)cnn1O (racemic)")
4.49
>>> testvalue("NC(C(=O)O)c1cnn(O)c1CC1CC1 (racemic)")
4.46
>>> testvalue("NC(C(=O)O)c1cnn(O)c1Cc1ccccc1 (racemic)")
4.17
>>> testvalue("NC(C(=O)O)c1cnn(O)c1CCCc1ccccc1 (racemic)")
4.27

Switching to the query record.
Task: Let me know recorded pKi for NC(C(=O)O)c1cnn(O)c1Br (racemic) , thanks.
Result: 4.60

---

# experimentSummary: Displacement of [3H]KA from KA receptor in rat cortical membrane
# Type: cell membranes
pIC50: −log10 of the molar value.
The reader will find reported pIC50 values listed item by item below.

Worked examples follow.
>>> testvalue("NC(C(=O)O)c1cnn(O)c1CC1CCCCC1 (racemic)")
"< 4.00"
>>> testvalue("CCc1c(C(N)C(=O)O)cnn1O (racemic)")
"< 4.00"
>>> testvalue("NC(C(=O)O)c1cnn(O)c1CC1CC1 (racemic)")
"< 4.00"
>>> testvalue("NC(C(=O)O)c1cnn(O)c1C(c1ccccc1)c1ccccc1 (racemic)")
4.33
>>> testvalue("CCCc1c(C(N)C(=O)O)cnn1O (racemic)")
"< 4.00"

Task: Let me know recorded pIC50 for CCCCCc1c(C(N)C(=O)O)cnn1O (racemic) , thanks.
Result: < 4.00

Task: Let me know recorded pIC50 for CCCCc1c(C(N)C(=O)O)cnn1O (racemic) , thanks.
Result: < 4.00

Task: Let me know recorded pIC50 for NC(C(=O)O)c1cnn(O)c1-c1ccccc1 (racemic) , thanks.
Result: < 4.00

Task: Let me know recorded pIC50 for NC(C(=O)O)c1cnn(O)c1CCc1ccccc1 (racemic) , thanks.
Result: < 4.00

Task: Let me know recorded pIC50 for NC(C(=O)O)c1cnn(O)c1Cc1ccccc1 (racemic) , thanks.
Result: < 4.00

Task: Let me know recorded pIC50 for NC(C(=O)O)c1cnn(O)c1CCCc1ccccc1 (racemic) , thanks.
Result: < 4.00

Task: Let me know recorded pIC50 for NC(C(=O)O)c1cnn(O)c1Br (racemic) , thanks.
Result: < 4.00

---

The reader will find reported EC50 values listed item by item below.
# tgt: Metabotropic glutamate receptor 1 (Rattus norvegicus, UniProt P23385)
# Sequence (P23385 whole entry): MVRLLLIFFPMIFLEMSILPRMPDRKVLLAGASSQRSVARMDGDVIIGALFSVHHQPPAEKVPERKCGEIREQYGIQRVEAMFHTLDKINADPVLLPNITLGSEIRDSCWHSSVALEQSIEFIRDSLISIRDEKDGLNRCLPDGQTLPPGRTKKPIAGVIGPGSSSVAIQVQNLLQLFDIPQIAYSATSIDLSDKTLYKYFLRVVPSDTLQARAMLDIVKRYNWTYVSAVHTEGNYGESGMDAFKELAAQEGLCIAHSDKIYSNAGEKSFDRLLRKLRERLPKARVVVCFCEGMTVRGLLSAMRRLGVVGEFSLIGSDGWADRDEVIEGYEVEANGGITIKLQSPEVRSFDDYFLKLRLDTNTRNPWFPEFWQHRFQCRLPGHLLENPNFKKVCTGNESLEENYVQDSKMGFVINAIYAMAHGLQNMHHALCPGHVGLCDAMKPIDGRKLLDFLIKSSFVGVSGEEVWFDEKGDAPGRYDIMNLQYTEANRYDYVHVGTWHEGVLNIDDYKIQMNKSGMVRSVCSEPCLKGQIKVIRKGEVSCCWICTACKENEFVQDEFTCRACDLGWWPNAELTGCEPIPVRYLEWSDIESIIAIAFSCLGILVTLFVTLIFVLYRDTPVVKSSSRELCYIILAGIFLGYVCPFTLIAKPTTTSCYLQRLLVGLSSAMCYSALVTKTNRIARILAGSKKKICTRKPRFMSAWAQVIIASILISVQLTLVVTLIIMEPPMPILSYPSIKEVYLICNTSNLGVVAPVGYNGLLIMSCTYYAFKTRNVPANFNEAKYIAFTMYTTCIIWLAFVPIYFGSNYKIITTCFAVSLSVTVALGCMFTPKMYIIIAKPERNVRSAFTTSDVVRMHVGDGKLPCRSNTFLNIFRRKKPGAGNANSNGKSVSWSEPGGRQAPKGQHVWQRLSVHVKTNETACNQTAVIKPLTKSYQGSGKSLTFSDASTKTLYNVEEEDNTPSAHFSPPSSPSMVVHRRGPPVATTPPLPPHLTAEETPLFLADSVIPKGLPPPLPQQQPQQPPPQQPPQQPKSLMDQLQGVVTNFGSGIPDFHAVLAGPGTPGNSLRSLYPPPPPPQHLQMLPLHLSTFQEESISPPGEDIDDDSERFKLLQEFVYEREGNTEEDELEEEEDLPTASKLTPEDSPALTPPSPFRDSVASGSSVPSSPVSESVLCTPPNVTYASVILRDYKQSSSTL
# experimentSummary: Agonist activity at rat mGluR1a receptor expressed in CHO cells assessed as effect on intracellular calcium level

>>> testvalue("CCCc1c(C(N)C(=O)O)cnn1O (racemic)")
"> 1000 µM"

Task: Let me know recorded EC50 for CCCCc1c(C(N)C(=O)O)cnn1O (racemic) , thanks.
Result: > 1000 µM

Task: Let me know recorded EC50 for CCCCCc1c(C(N)C(=O)O)cnn1O (racemic) , thanks.
Result: > 1000 µM

Task: Let me know recorded EC50 for NC(C(=O)O)c1cnn(O)c1C(c1ccccc1)c1ccccc1 (racemic) , thanks.
Result: > 1000 µM

Task: Let me know recorded EC50 for NC(C(=O)O)c1cnn(O)c1Br (racemic) , thanks.
Result: > 1000 µM

Task: Let me know recorded EC50 for NC(C(=O)O)c1cnn(O)c1CC1CC1 (racemic) , thanks.
Result: > 1000 µM

Task: Let me know recorded EC50 for CCc1c(C(N)C(=O)O)cnn1O (racemic) , thanks.
Result: > 1000 µM

Task: Let me know recorded EC50 for NC(C(=O)O)c1cnn(O)c1CC1CCCCC1 (racemic) , thanks.
Result: > 1000 µM

Task: Let me know recorded EC50 for NC(C(=O)O)c1cnn(O)c1-c1ccccc1 (racemic) , thanks.
Result: > 1000 µM

Task: Let me know recorded EC50 for NC(C(=O)O)c1cnn(O)c1Cc1ccccc1 (racemic) , thanks.
Result: > 1000 µM
